Parameter cytotoxicity at 10 µM: see the listing below.
test: Toxicity liver stage against HepG2, at 10uM; format: cell-based; design: test concentration 10 uM, cell line HepG2-A16-CD81EGFP; details: human, HepG2-A16-CD81EGFP cells; read-out: INHIBITION
Numeric only. Scale: %

O=C1OC2(CCN(CC3CCCO3)CC2)CN1CCc1ccccc1 (centres undefined) ... -6.21
CC(C)n1nc(CNc2ncccn2)c2c1CN(C)CC2 ... -142
COc1nn(C)c2c1CCCN(C(=O)c1c[nH]cn1)C2 ... -100
O=C(c1cccc(-n2cnnc2)c1)N1C[C@@H](O)[C@H](N2CCOCC2)C1 ... 2.26
CSCc1ccc(CNCCN2CCOCC2)o1 ... -0.583
Nc1cc2c(nn1)CCN(C(=O)c1cccnc1Oc1ccccc1)C2 ... -11.6

cytotoxicity at 10 µM for CC(=O)NC1CCN(c2ccnc(C3CCNCC3)c2)CC1 ?
-6.15

Dear colleague, I am looking for the recorded cytotoxicity at 10 µM of the following compound: Cc1cc(C)n(CC2CCCN2C(=O)Cc2cn3ccccc3n2)n1 (centres undefined)
2.47

Data request, read-out cytotoxicity at 10 µM, for Cc1csc2nc3n(c(=O)c12)CCN(C(=O)c1ccncc1)CC3
-2.65

---

test: Toxicity liver stage against HepG2, at 10uM; format: cell-based; design: test concentration 10 uM, cell line HepG2-A16-CD81EGFP; conditions: human, HepG2-A16-CD81EGFP cells; read-out: INHIBITION
Assay Metric: cytotoxicity at 10 µM

Illustrative cases are given below, each with its answer.
O=C1CO[C@@H]2CN(Cc3nccs3)C[C@H]2N1Cc1ccncc1 ... -66.6%
Cc1csc(CNC(=O)NCc2ccc3c(c2)OCCO3)n1 ... -5.52%
Cc1nc(NC(=O)C2CCCN(C(=O)C3CC3)C2)sc1C (stereo unspecified) ... 3.71%

What value of cytotoxicity at 10 µM has been recorded for this entry: CN(Cc1cnn(C)c1)C(=O)NC1CCN(c2ncccn2)CC1
-5.82%

cytotoxicity at 10 µM for Cc1cc(C)c(CNC(=O)NCC(c2ccccc2)N(C)C)c(=O)[nH]1 (stereo unspecified) ?
-3.19%

# get_value(readout='cytotoxicity at 10 µM', item= COCC[C@]1(O)CCN(C2CCN(C(=O)C3CCC3)CC2)C[C@H]1C )
0.866%

---

test: Toxicity liver stage against HepG2, at 10uM; format: cell-based; design: test concentration 10 uM, cell line HepG2-A16-CD81EGFP; conditions: human, HepG2-A16-CD81EGFP cells; read-out: INHIBITION
cytotoxicity at 10 µM for assorted compounds
# output: bare number, implied unit %

Reference set (10 entries):
COc1ccc(F)c(F)c1CN1CC(=O)N(c2ccccc2C)CC1C (configuration not stated) ... -0.121
CCCc1cc(N2CCC(NCCc3ccc(O)cc3)CC2)nc(C)n1 ... -6
O=S(=O)(Nc1cnc(N2CCOCC2)nc1)c1ccc(Cl)cc1 ... -5.82
COc1ccc(CC(C)(O)CNC(=O)NCc2cccs2)cc1 (configuration not stated) ... 5.62
Cc1cn2c(n1)CCC(NC(=O)c1ccc(S(C)(=O)=O)o1)C2 (configuration not stated) ... -6.92
N#CCCn1nc(C(F)(F)F)c2c1CCCC2 ... -11.9
COc1ccc(-c2noc(C(N)CCSC)n2)cc1 (configuration not stated) ... -7.27
O=C(COC1CCCC1)N1CCCN(c2ncccn2)CC1 ... 15.9
CCc1nc(CN2CCCC(N(C)Cc3cnc(C)s3)C2)no1 (configuration not stated) ... 2.89
COc1cccc(CNc2ccc(F)c(Cl)c2)c1O ... 4.56

Data request, read-out cytotoxicity at 10 µM, for Cc1ccccc1CC(=O)N1C[C@@H]2COC[C@]2(CN(C)C)C1
3.79

# cytotoxicity at 10 µM lookup, item Cc1nc(CNC(=O)CC2C(=O)NCCN2CCC(C)C)n[nH]1 (configuration not stated)
-4.44
